assay: MRP1 drug-resistance reversers in H69AR cells – cell-based, doxorubicin co-treatment, primary screen (AID 602); settings: H69AR cells + 2 uM doxorubicin, CellTiter-Glo, 72 h; at 10 µM; stronger effect = higher value;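 on differential viability (reversal): larger differential means the compound sensitizes cells more to doxorubicin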
Screen size: about 85,000 compounds; about 35 (0.04%) were called active. The sample holds actives, similar compounds and a random draw of the others, so the mix is not that of the screen.
Experimental readout: differential viability (reversal) (%)
Give bare numbers, in %.

Sample records with differential viability (reversal):
{"columns": ["Compound", "differential viability (reversal) [%]"],
 "data": [
  ["CCNc1nc(NC(C)C)nc(OCCOC(=O)c2ccccc2)n1", -9.76],
  ["O=C(NCCOc1ccccc1)c1ccccc1", -3.69],
  ["CCOc1cc(C(=O)Nc2c(C)ccc3nsnc23)cc(OCC)c1OCC", -5.65]
]}

Give differential viability (reversal) for each listed item.
1. Cc1ccc(N(CC(=O)Nc2cc(C)cc(C)c2)S(=O)(=O)c2cccc3nonc23)cc1
2. CCCC(=O)C1CCN(Cc2ccccc2)CC1
3. CC1(C)CCc2nc(SCc3ccccc3)c(C#N)cc2C1
4. CCN(CC)CCNC(=O)CCCCCn1c(=O)[nH]c2cc(C(=O)OC)ccc2c1=O
5. O=S(=O)(NCCc1ccccc1)c1ccccc1
6. CC1(C)OC(=O)N2CCc3ccccc3C21C (stereo not drawn)
7. CC(=O)c1ccc2c(c1)c1ccccc1n2CC(C)C
8. Cc1cc(C)c(NC(=O)CN2CCOCCOCCOCCOCC2)c(C)c1

1. -3.92
2. 1.73
3. 3.69
4. 10.3
5. 7.78
6. 3.59
7. -0.04
8. 8.19

* * *

Please go through the items and note down their differential viability (reversal).
assay: MRP1 drug-resistance reversers in H69AR cells – cell-based, doxorubicin co-treatment, primary screen (AID 602); conditions: H69AR cells + 2 uM doxorubicin, CellTiter-Glo, 72 h; at 10 µM; stronger effect = higher value;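 on differential viability (reversal): larger differential means the compound sensitizes cells more to doxorubicin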
About 35 (0.04%) of roughly 85,000 compounds were called active. Shown is part of a subset that was picked to be rich in actives.
Give bare numbers, in %.

Sample records with differential viability (reversal):
{"columns": ["Compound", "differential viability (reversal) / %"],
 "data": [
  ["CCOC(=O)C1=C(C)NC2=C(C(=O)CC(C)(C)C2)C1c1ccsc1 (stereo unspecified)", -1.33],
  ["COc1ccc(CNC(=O)CCn2cccc2)cc1", -1.19]
]}

Give differential viability (reversal) for each listed item.
1. COC(=O)/C(NC(C)=O)=C(\C)c1ccc(Cl)cc1
2. COc1ccc(-c2nnc(SCC(=O)c3ccc4c(c3)OCCO4)o2)cc1
3. CS(=O)(=O)N(CC(O)Cn1c2ccccc2c2ccccc21)c1cccc2ccccc12 (stereo unspecified)
4. CCOC(=O)Cc1csc(NC(=O)CSc2nnc(-c3cccnc3)n2Cc2ccco2)n1

1: -15.7; 2: 2.52; 3: -10.3; 4: 14.6

* * *

Please go through the items and note down their viability.
assay: MRP1 drug-resistance reversers in H69AR cells – cell-based, doxorubicin co-treatment, primary screen (AID 602); details: H69AR cells + 2 uM doxorubicin, CellTiter-Glo, 72 h; measured here: viability with 2 uM doxorubicin; at 10 µM; stronger effect = lower value
Out of some 85,000 compounds screened, about 35 (0.04%) were called active. The list comes from a sample in which actives are over-represented; it also holds close analogues and randomly drawn compounds.
Numbers only, in %.

Give viability for each listed item.
1. CCCOn1c(-n2nc(C)cc2C)nc2ccccc2c1=O
2. O=C(NCc1ccco1)c1ccc(Cn2c(=O)c3sccc3n(Cc3ccc(F)cc3)c2=O)cc1
3. COc1ccc(C2CC(=O)n3c(nc4ccccc43)S2)cc1OC (stereo unspecified)
4. CC(c1ccccn1)N(CCN(C)C)C(=S)Nc1ccccc1F (stereo unspecified)
5. COC(=O)CSc1snnc1-c1ccc(Cl)c(Cl)c1
6. Cc1nc2ccccc2n1C(=O)N1CCOCC1

1: 89.5; 2: 70.9; 3: 111; 4: 100; 5: 89.3; 6: 85.1

Give viability for each listed item.
1. CC(C)(C)NC(=O)Cn1c(SCC(=O)Nc2nccs2)nc2ccccc21
2. CCC(=O)NC(Nc1cc(C)ccn1)(C(F)(F)F)C(F)(F)F
3. Cc1cccc(C)c1OC(=O)CSc1nnc(-c2ccccc2)o1
4. CCn1nccc1C(=O)Nc1ccc(S(=O)(=O)NC23CC4CC(CC(C4)C2)C3)cc1
5. CCN(c1ccccc1)S(=O)(=O)c1ccc(NC(=O)C(C)(C)C)cc1

1. 84.5
2. 92
3. 88.5
4. 84
5. 64.7

* * *

experiment: MRP1 drug-resistance reversers in H69AR cells – cell-based, doxorubicin co-treatment, primary screen (AID 602); details: H69AR cells + 2 uM doxorubicin, CellTiter-Glo, 72 h; at 10 µM; stronger effect = higher value;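 on differential viability (reversal): larger differential means the compound sensitizes cells more to doxorubicin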
Screen size: about 85,000 compounds; about 35 (0.04%) were called active. This is one part of a sample in which actives are shown more often than they occur.
Experimental readout: differential viability (reversal) (%)
Answers are plain numbers, in %.

Sample records with differential viability (reversal):
{"columns": ["Compound", "Unit abbreviation", "differential viability (reversal)"],
 "data": [
  ["Cc1[nH]n(-c2ccc([N+](=O)[O-])cc2)c(=O)c1C=NCCN1CCN(C(=O)c2ccccc2F)CC1", "%", -1.07],
  ["CCOC(=O)c1cnc(SCC(=O)Nc2ccccc2C(=O)OC)nc1N", "%", 2.9],
  ["O=C(c1ccccc1Oc1ccccc1)N1CCN(c2ccc(F)cc2)CC1", "%", 4.49],
  ["Cc1cccc(NC(=O)C2CC(=O)OC23CCCC3)c1 (stereo unspecified)", "%", 6.22],
  ["N=c1c2c3c(sc2nc2n1CCCCC2)CCCC3", "%", 9.08],
  ["O=C(Nc1ccc(Cl)cc1)c1cc2nc(C3CC3)cc(C(F)(F)F)n2n1", "%", 10.2]
]}

Give differential viability (reversal) for each listed item.
1. Cc1nnc(SCC(=O)NC2CCCC2)s1
2. COC(=O)c1sccc1NC(=O)CCC1CCCC1
3. Cc1cccc(C)c1OC(=O)CSc1nnc(-c2ccccc2)o1
4. COc1cccc(N(CC(=O)NCCSc2ccccn2)S(C)(=O)=O)c1

1: 7.72; 2: 11.8; 3: 9.93; 4: 3.02

* * *

assay: MRP1 drug-resistance reversers in H69AR cells – cell-based, doxorubicin co-treatment, primary screen (AID 602); details: H69AR cells, CellTiter-Glo, 72 h; measured here: cytotoxicity without doxorubicin; at 10 µM
In all, about 85,000 compounds went through this assay and about 35 (0.04%) were called active. Only a selection was taken, and actives are over-represented in it overall.
Please go through the items and note down their viability.
One number for each entry, in %.

Sample records with viability:
{"columns": ["Compound", "viability / %"],
 "data": [
  ["O=C1C2C3C=CC(C4CC34)C2C(=O)N1/N=C/c1ccc(-c2ccccc2[N+](=O)[O-])o1 (stereo unspecified)", 86.5],
  ["Nc1nc(C23CC4CC(CC(C4)C2)C3)cs1", 93.3],
  ["Cc1cccc2c(=O)n3c(nc12)CCCCC3", 91.3],
  ["CCCCC(C(=O)OCC(=O)c1ccc(OC)cc1)N1C(=O)c2ccccc2C1=O (stereo unspecified)", 95],
  ["CCOC(=O)C1=C(C)NC2=C(C(=O)CC(C)(C)C2)C1c1ccsc1 (stereo unspecified)", 84.5],
  ["CCOC(=O)C(C)Sc1nc2ccccc2c(=O)n1CC1CCCCC1 (stereo unspecified)", 82.4],
  ["Nn1c(SCC(=O)NC2CCCC2)nnc1-c1ccccc1F", 102],
  ["CC(C)(C)c1ccc(C(=O)NNC(=O)Cc2ccccc2)cc1", 95],
  ["Cc1ccc(O)c(CNc2nc3ccccc3n2C)c1", 88.4],
  ["O=C(CN1CCCCCC1)N1c2ccccc2Sc2ccc(C(F)(F)F)cc21", 36.8]
]}

Give viability for each listed item.
1. COC(=O)C1=C(C(=O)OC)C2(OC1c1ccc(Br)cc1)C(=O)c1ccccc1C2=O (stereo unspecified)
2. O=C(NCC1CCC(C(=O)O)CC1)OCc1ccccc1 (stereo unspecified)
3. CC(c1ccco1)N(C(=O)Nc1ccccc1)C1CCCCC1 (stereo unspecified)

1. 106
2. 98.5
3. 77.7

Give viability for each listed item.
1. O=S(=O)(NCCc1ccccc1)c1ccccc1
2. COc1ccc(CNC(=O)CCn2cccc2)cc1
3. CCOC(=O)N1CCC(Nc2c(NCCCN3CCN(CC)CC3)c(=O)c2=O)CC1
4. Cc1ccc(NC(=S)NC(NC(=O)Cc2cccc3ccccc23)C(Cl)(Cl)Cl)cc1 (stereo unspecified)
5. Cc1ccc(Nc2nnc(SCc3ccccc3)s2)cc1

[103, 98.9, 112, 0.99, 98.2]

Give viability for each listed item.
1. CC1(C)OC(=O)N2CCc3ccccc3C21C (stereo unspecified)
2. CCOc1c(Br)cc(/C=C2\C(=O)N(CCC#N)N=C2C)cc1OC
3. CCOC(=O)C1=C(CSc2nnnn2C)N(C)C(=O)NC1c1ccccc1 (stereo unspecified)
4. COC(=O)C1=C(Nc2ccc(C)cc2)C=C(C)C(C(=O)OC)C1c1ccc(F)cc1 (stereo unspecified)

1. 91.6
2. 26.2
3. 93.1
4. 12.1

Give viability for each listed item.
1. CCOC(=O)CSc1nc2ccc(C)cc2[nH]1
2. COc1ccc(C(=O)Nc2nc(-c3ccc(S(=O)(=O)N4CCOCC4)cc3)cs2)cc1
3. COc1ccc(C2CC(=O)n3c(nc4ccccc43)S2)cc1OC (stereo unspecified)

1. 89.4
2. 58
3. 115
